Reported LC50 (concentration killing 50% of cells) is given for each of the following molecules.
Test system: MDA-MB-453
assayOverview: Cytotoxicity against human MDA-MB-453 cells assessed as reduction in cell viability measured after 48 hrs by sulforhodamine B assay
Format: functional
Please give a number only; it is taken to be in nM.

Examples with their reported LC50 (concentration killing 50% of cells) follow.
C[C@]12CC[C@H](O)C[C@@H]1CC[C@H]1[C@@H]3[C@@H]4O[C@@H]4C(=O)[C@@]3(C)CC[C@@H]12
1080
C[C@]12CCC(=O)C[C@@H]1CC[C@H]1[C@@H]3[C@@H]4O[C@@H]4C(=O)[C@@]3(C)CC[C@@H]12
1010
Cc1ccc(S(=O)(=O)N2[C@@H]3C[C@@]4(C)[C@@H](CC[C@H]5[C@@H]6[C@@H]7O[C@@H]7C(=O)[C@@]6(C)CC[C@@H]54)C[C@@H]32)cc1 (some centres undefined)
350

# evaluate next
Task: # lookup: LC50 (concentration killing 50% of cells) of C[C@]12C[C@H]3O[C@H]3C[C@@H]1CC[C@H]1[C@@H]3[C@@H]4O[C@@H]4C(=O)[C@@]3(C)CC[C@@H]12
Result: 740

====

Entries annotated with measured GI50
Test system: HeLa
assayOverview: Antiproliferative activity against human HeLa cells assessed as growth inhibition measured after 48 hrs by sulforhodamine B assay
Format: functional

Example cases with answers are listed next.
C[C@]12CC=CC[C@@H]1CC[C@@H]1[C@@H]2CC[C@]2(C)C(=O)C=C[C@@H]12
470 nM
CO[C@@H]1CC(=O)[C@@]2(C)CC[C@H]3[C@@H](C[C@H](O)[C@H]4CC=CC[C@@]43C)[C@H]12
17500 nM
C[C@]12C[C@H]3O[C@H]3C[C@@H]1[C@@H](O)C[C@@H]1[C@@H]2CC[C@]2(C)C(=O)C=C[C@@H]12
1180 nM

Task: Entry CO[C@@H]1CC(=O)[C@@]2(C)CC[C@H]3[C@@H](CC(=O)[C@H]4C[C@@H]5O[C@@H]5C[C@@]43C)[C@H]12 has what GI50?
Result: > 50000 nM

Task: Quick one: GI50 for C[C@]12CC[C@H]3[C@@H](CC[C@H]4C[C@@H]5O[C@@H]5C[C@@]43C)[C@@H]1[C@H](O)[C@H]1O[C@H]12 ?
Result: > 50000 nM

Task: Using the record for C[C@]12C[C@H]3O[C@H]3C[C@@H]1C(=O)C[C@@H]1[C@@H]2CC[C@]2(C)C(=O)C=C[C@@H]12 , report its GI50.
Result: 760 nM

Task: Could you share which GI50 value was measured for C[C@]12C[C@H]3O[C@H]3C[C@@H]1CC[C@@H]1[C@@H]2CC[C@]2(C)[C@@H]3O[C@@H]3C(=O)[C@@H]12 ?
Result: 34700 nM

Task: Query (molecule): C[C@]12CC[C@H](O)C[C@@H]1CC[C@H]1[C@@H]3[C@@H]4O[C@@H]4C(=O)[C@@]3(C)CC[C@@H]12 ; field requested: GI50
Result: 1300 nM

Task: I have this molecule here, C[C@]12C[C@H]3O[C@H]3C[C@@H]1CC[C@H]1[C@@H]3[C@@H]4O[C@@H]4C(=O)O[C@@]3(C)CC[C@@H]12 , and I need its recorded GI50.
Result: 28200 nM

Task: Requested read-out: GI50. Entry: C[C@]12CCC(=O)C[C@@H]1CC[C@@H]1[C@@H]2CC[C@]2(C)C(=O)C=C[C@@H]12
Result: 380 nM

Task: Give the measured GI50 of C[C@]12C[C@H]3O[C@H]3C[C@@H]1C(=O)C[C@H]1[C@@H]3[C@@H]4O[C@@H]4C(=O)[C@@]3(C)CC[C@@H]12 .
Result: 2060 nM
